target: Solute carrier family 15 member 1 (Homo sapiens, UniProt P46059); experiment: TP_TRANSPORTER: inhibition of Gly-Sar uptake (pH6.0) in Caco-2 cells; format: functional, cell-based
Sequence (P46059 whole entry): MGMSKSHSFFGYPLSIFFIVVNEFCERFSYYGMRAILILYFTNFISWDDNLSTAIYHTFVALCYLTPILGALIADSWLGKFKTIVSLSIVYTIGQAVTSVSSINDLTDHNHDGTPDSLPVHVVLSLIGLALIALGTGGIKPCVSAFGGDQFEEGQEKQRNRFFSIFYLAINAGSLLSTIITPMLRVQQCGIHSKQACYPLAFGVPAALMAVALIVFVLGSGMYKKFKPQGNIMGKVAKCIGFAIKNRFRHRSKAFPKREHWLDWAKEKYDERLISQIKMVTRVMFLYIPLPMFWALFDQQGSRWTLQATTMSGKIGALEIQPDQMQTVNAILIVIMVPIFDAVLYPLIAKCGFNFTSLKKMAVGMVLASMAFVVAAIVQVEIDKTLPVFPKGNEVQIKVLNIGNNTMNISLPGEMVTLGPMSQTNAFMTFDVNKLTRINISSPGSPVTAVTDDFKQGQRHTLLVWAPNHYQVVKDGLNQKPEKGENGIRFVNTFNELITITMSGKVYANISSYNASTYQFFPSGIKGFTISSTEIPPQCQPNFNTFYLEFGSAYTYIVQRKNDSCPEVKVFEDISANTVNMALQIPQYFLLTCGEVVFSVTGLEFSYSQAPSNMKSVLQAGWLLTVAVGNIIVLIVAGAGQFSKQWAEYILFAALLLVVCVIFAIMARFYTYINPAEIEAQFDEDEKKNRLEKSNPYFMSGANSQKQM
value kind: pKi
On this scale, pKi is minus log10 of a concentration expressed in M (mol/L).

Cc1onc(-c2ccccc2)c1C(=O)N[C@@H]1C(=O)N2[C@@H]1SC(C)(C)[C@@H]2C(=O)O [OXACILLIN] = 1.92
Cn1nnnc1SCC1=C(C(=O)O)N2C(=O)[C@@H](NC(=O)[C@H](O)c3ccccc3)[C@H]2SC1 [CEFAMANDOLE] = 2.09

// query I am curious: what pKi value has been reported for CO[C@@]1(NC(=O)C(C(=O)O)c2ccc(O)cc2)C(=O)N2C(C(=O)O)=C(CSc3nnnn3C)CO[C@@H]21 (some centres undefined) [MOXALACTAM] ?
// result 1.91

* * *

target: Solute carrier family 15 member 2 (Rattus norvegicus, UniProt Q63424); assay: TP_TRANSPORTER: inhibition of Gly-Sar uptake (pH6.0) in SKPT cells
Sequence (Q63424 whole entry): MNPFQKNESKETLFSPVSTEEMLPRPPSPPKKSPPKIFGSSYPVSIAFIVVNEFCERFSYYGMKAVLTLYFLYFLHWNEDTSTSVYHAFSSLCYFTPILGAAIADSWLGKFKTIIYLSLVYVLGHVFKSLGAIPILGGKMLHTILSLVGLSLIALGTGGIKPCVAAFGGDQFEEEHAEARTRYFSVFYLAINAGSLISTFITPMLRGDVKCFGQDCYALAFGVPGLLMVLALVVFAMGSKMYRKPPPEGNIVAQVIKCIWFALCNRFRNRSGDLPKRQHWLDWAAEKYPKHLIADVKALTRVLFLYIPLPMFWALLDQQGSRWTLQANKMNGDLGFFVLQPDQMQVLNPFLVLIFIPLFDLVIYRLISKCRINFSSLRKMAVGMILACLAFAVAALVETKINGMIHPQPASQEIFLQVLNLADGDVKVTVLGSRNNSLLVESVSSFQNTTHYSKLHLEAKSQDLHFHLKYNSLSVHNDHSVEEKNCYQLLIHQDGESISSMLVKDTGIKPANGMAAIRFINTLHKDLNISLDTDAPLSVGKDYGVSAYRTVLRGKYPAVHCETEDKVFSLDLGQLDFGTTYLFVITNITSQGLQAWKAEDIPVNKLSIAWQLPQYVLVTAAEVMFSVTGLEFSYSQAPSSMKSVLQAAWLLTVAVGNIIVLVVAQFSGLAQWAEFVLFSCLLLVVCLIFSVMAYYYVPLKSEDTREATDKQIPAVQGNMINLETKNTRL
Overview of recorded pKi for various compounds
On this scale, pKi is minus log10 of a concentration expressed in M (mol/L).

// query I am curious: what pKi value has been reported for Cc1onc(-c2ccccc2)c1C(=O)N[C@@H]1C(=O)N2[C@@H]1SC(C)(C)[C@@H]2C(=O)O ?
// result 2.48

// query I am curious: what pKi value has been reported for CO/N=C(\C(=O)N[C@@H]1C(=O)N2C(C(=O)[O-])=C(C[N+]3(C)CCCC3)CS[C@H]12)c1csc(N)n1 ?
// result 1.94

// query I am curious: what pKi value has been reported for C=CC1=C(C(=O)O)N2C(=O)[C@@H](NC(=O)/C(=N\OCC(=O)O)c3csc(N)n3)[C@H]2SC1 ?
// result 2.59

// query I am curious: what pKi value has been reported for CC(=O)OCC1=C(C(=O)O)N2C(=O)[C@@H](N)[C@H]2SC1 ?
// result 2.31

// query I am curious: what pKi value has been reported for CC1=C(C(=O)O)N2C(=O)[C@@H](NC(=O)[C@H](N)c3ccccc3)[C@H]2SC1 [CEPHALEXIN ANHYDROUS] ?
// result 4.12

* * *

target: Solute carrier family 15 member 1 (Homo sapiens, UniProt P46059); test: TP_TRANSPORTER: inhibition of Gly-Sar uptake (pH6.0) in Caco-2 cells
Overview of recorded Ki for various compounds

# count of solved cases: 5
Nc1nc(/C(=C/CC(=O)O)C(=O)N[C@@H]2C(=O)N3C(C(=O)O)=CCS[C@H]23)cs1 [CEFTIBUTEN] = 0.34 mM
CC1(C)S[C@@H]2[C@H](NC(=O)Cc3ccccc3)C(=O)N2[C@H]1C(=O)O [PENICILLIN G] = > 30 mM
CC1(C)S[C@@H]2[C@H](N)C(=O)N2[C@H]1C(=O)O = > 30 mM
CC(=O)OCC1=C(C(=O)O)N2C(=O)[C@@H](NC(=O)Cc3cccs3)[C@H]2SC1 [CEPHALOTHIN] = > 10 mM
C=CC1=C(C(=O)O)N2C(=O)[C@@H](NC(=O)/C(=N\OCC(=O)O)c3csc(N)n3)[C@H]2SC1 [CEFIXIME] = 12 mM

// query I am curious: what Ki value has been reported for CC(C)(O/N=C(\C(=O)N[C@@H]1C(=O)N2C(C(=O)[O-])=C(C[n+]3ccccc3)CS[C@H]12)c1csc(N)n1)C(=O)O [CEFTAZIDIME] ?
// result > 10 mM

// query I am curious: what Ki value has been reported for CC(=O)OCC1=C(C(=O)O)N2C(=O)[C@@H](N)[C@H]2SC1 ?
// result > 10 mM

// query I am curious: what Ki value has been reported for CO/N=C(\C(=O)N[C@@H]1C(=O)N2C(C(=O)[O-])=C(C[n+]3cccc4c3CCC4)CS[C@H]12)c1csc(N)n1 [CEFPIROME] ?
// result > 30 mM

// query I am curious: what Ki value has been reported for C=N[C@@H](C(=O)N[C@@H]1C(=O)N2[C@@H]1SC(C)(C)[C@@H]2C(=O)O)c1ccccc1 [METAMPICILLIN] ?
// result 12.7 mM

Just for reference, ChEMBL document CHEMBL2074537 is where these values come from.
